TARGET_ENTITY: CDK2 (Homo sapiens)
Construct: endogenous in cells; host or cells: MKN1 cells
RUN_DESCRIPTION: CDK2 degradation in MKN1 cells (AlphaLISA)
Format: cell-based
ASSAY_CONDITIONS: 14 h incubation, read-out: CDK2 degradation 14 h: Mean external-Abs DC50
MEASURED_QUANTITY: DC50

Cc1cc(S(=O)(=O)C2CC3(CCN(CC4CCN(c5cccc6c5n(C)c(=O)n6C5CCC(=O)NC5=O)CC4)CC3)C2)ccc1Nc1ncc2cc(Cl)c(=O)n(C(C)C(C)(C)O)c2n1 (stereo not drawn) | > 1000 nM
Cc1cc(S(=O)(=O)NC2CCC(CN3CCN(c4cc(F)c(C5CCC(=O)NC5=O)cc4C)CC3)CC2)ccc1Nc1ncc(C(F)(F)F)c(N2CCCC(C)(O)C2)n1 (stereo not drawn) | < 100 nM

Query molecule follows.
Quick one: DC50 for O=C1CCC(c2ccc(N3CCC(CN4CCC(NS(=O)(=O)c5ccc(Nc6ncc7c(n6)N(C6CCCC(O)C6)C(=O)C76CC6)c(F)c5)C(F)C4)CC3)cc2F)C(=O)N1 (stereo not drawn) ?
< 100 nM

---

TARGET_ENTITY: CDK2 (Homo sapiens)
Construct: endogenous in cells; host or cells: MKN1 cells
RUN_DESCRIPTION: CDK2 degradation in MKN1 cells (AlphaLISA)
Type: cell-based
ASSAY_CONDITIONS: 14 h incubation
MEASURED_QUANTITY: CDK2 degradation 14 h: Average Dmax %

Cc1cc(S(=O)(=O)NCCO[C@H]2CC[C@H](CN3CCC(c4ccc5c(c4)n(C)c(=O)n5C4CCC(=O)NC4=O)CC3)CC2)ccc1Nc1ncc2cc(C(F)F)c(=O)n(C3CCCC3)c2n1 (stereo partly drawn) [I-441] | A (A (>75% o))
Cc1cc(S(=O)(=O)NC2CCC(CN3CCN(c4cc(Cl)c(C5CCC(=O)NC5=O)cc4F)CC3)CC2)ccc1Nc1ncc(C(F)(F)F)c(N2CCCC(C)(O)C2)n1 (stereo not drawn) [I-800] | A (A (>75% o))

---

TARGET_ENTITY: CDK2 (Homo sapiens, UniProt P24941)
Construct: endogenous in cells; host or cells: MKN1 cells
RUN_DESCRIPTION: CDK2 degradation in MKN1 cells (AlphaLISA)
Format: cell-based
ASSAY_CONDITIONS: 14 h incubation
MEASURED_QUANTITY: CDK2 degradation 14 h: Average Dmax %

Cc1cc(S(=O)(=O)NC(C)COC2CCC(CN3CC(c4cccc5c4n(C)c(=O)n5C4CCC(=O)NC4=O)C3)CC2)ccc1Nc1ncc(C(F)(F)F)c(N2CCCC(C)(O)C2)n1 (stereo not drawn) | B (B (>50% -75%))
Cc1cc(S(=O)(=O)C2CC3(CCN(CC4CCN(c5ccc(N6CCC(=O)NC6=O)cc5)CC4)CC3)C2)ccc1Nc1ncc2cc(Cl)c(=O)n(C3CCCC3)c2n1 | B (B (>50% -75%))

---

TARGET_ENTITY: CDK2 (Homo sapiens, UniProt P24941)
Construct: endogenous in cells; host or cells: MKN1 cells
RUN_DESCRIPTION: CDK2 degradation in MKN1 cells (AlphaLISA)
Type: cell-based
ASSAY_CONDITIONS: 14 h incubation, read-out: CDK2 degradation 14 h: Mean external-Abs DC50
Each record here notes measured DC50.

# annotated cases, reported DC50 shown
CC1(O)CCC(c2nc(Nc3ccc(S(=O)(=O)NC4CCC(CN5CCN(c6ccc(C7CCC(=O)NC7=O)c(F)c6)CC5)CC4)cc3F)ncc2C(F)(F)F)CC1 (centres unmarked) [I-1074] | 100 to 500 nM
Cc1cc(S(=O)(=O)NC(C)COC2CCC(CN3CCN(c4ccc5c(c4F)n(C)c(=O)n5C4CCC(=O)NC4=O)CC3)CC2)ccc1Nc1ncc(C(F)(F)F)c(N2CCC(C(C)(C)O)C2)n1 (centres unmarked) [I-858] | < 100 nM
Cc1cc(S(=O)(=O)NC2CC(N3CCN(CC4CCN(c5ccc(C6CCC(=O)NC6=O)cc5)CC4)CC3)C2)ccc1Nc1ncc(C(F)(F)F)c(N2CCCC(C)(O)C2)n1 (centres unmarked) [I-719] | < 100 nM
Cc1cc(S(=O)(=O)NC(C)COC2CCC(CN3CCN(c4ccc5c(c4F)n(C)c(=O)n5C4CCC(=O)NC4=O)CC3)CC2)ccc1Nc1ncc(C(F)(F)F)c(N2CCCC(C)(O)C2)n1 (centres unmarked) [I-844] | < 100 nM
COc1cc(N2CCN(CC3CCC(NS(=O)(=O)c4ccc(Nc5ncc(C(F)(F)F)c(N6CCCC(C)(O)C6)n5)c(C)c4)CC3)CC2)c(F)cc1NC1CCC(=O)NC1=O (centres unmarked) [I-816] | < 100 nM

// next entry
Return DC50 measured with CDK2 (Homo sapiens, UniProt P24941) given this compound: Cc1cc(S(=O)(=O)C2CCN(C(=O)CN3CCN(c4cccc5c4n(C)c(=O)n5C4CCC(=O)NC4=O)CC3)CC2)ccc1Nc1ncc2cc(Cl)c(=O)n(C3CCCC3)c2n1 (centres unmarked) [I-48]
< 100 nM

---

The following compounds are shown together with reported DC50 values.
TARGET_ENTITY: CDK2 (Homo sapiens)
Construct: endogenous in cells; host or cells: MKN1 cells
RUN_DESCRIPTION: CDK2 degradation in MKN1 cells (AlphaLISA)
Type: cell-based
ASSAY_CONDITIONS: 14 h incubation, read-out: CDK2 degradation 14 h: Mean external-Abs DC50

Consider the reported DC50 for these compounds:
Cc1cc(S(=O)(=O)C2CC3(CCN(CC4CCN(c5cccc6c(N7CCC(=O)NC7=O)cncc56)CC4)CC3)C2)ccc1Nc1ncc2cc(Cl)c(=O)n(C3CCCC3)c2n1 | < 100 nM
Cc1cc(S(=O)(=O)NCCOCCOCCCc2ccc3c(c2)n(C)c(=O)n3C2CCC(=O)NC2=O)ccc1Nc1ncc2c(n1)N(C1CCCC1)C(=O)C21CC1 (centres unmarked) | < 100 nM
Cc1cc(S(=O)(=O)NC2CC(N3CCN(CC4CCN(c5ccc(Cl)c(NC6CCC(=O)NC6=O)c5)CC4)CC3)C2)ccc1Nc1ncc(C(F)(F)F)c(N2CCCC(C)(O)C2)n1 (centres unmarked) | > 1000 nM
Cc1cc(S(=O)(=O)NC2CCC(CN3CCN(c4ccc5c(c4F)n(C)c(=O)n5C4CCC(=O)NC4=O)CC3)CC2)ccc1Nc1ncc(C(F)(F)F)c(N2CCCC(C)(O)C2)n1 (centres unmarked) | < 100 nM

Shifting focus to the compound that follows.
Looking for the measured DC50 of Cc1cc(S(=O)(=O)NC2(C)CC(N3CCN(CC4CCN(c5ccc6c(c5F)n(C)c(=O)n6C5CCC(=O)NC5=O)CC4)CC3)C2)ccc1Nc1ncc(C(F)(F)F)c(N2CCCC(C)(O)C2)n1 (centres unmarked) , can you help?
< 100 nM

---

Catalogue of DC50 values
TARGET_ENTITY: CDK2 (Homo sapiens, UniProt P24941)
Construct: endogenous in cells; host or cells: MKN1 cells
RUN_DESCRIPTION: CDK2 degradation in MKN1 cells (AlphaLISA)
Assay type: cell-based
ASSAY_CONDITIONS: 14 h incubation, read-out: CDK2 degradation 14 h: Mean external-Abs DC50

Cc1cc(S(=O)(=O)NC2CC3(C2)CN(CC2CN(c4ccc(C5CCC(=O)NC5=O)c(Cl)c4)C2)C3)ccc1Nc1ncc(C(F)(F)F)c(N2CCCC(C)(O)C2)n1 (stereo not drawn) | < 0.1 µM
Cc1cc(S(=O)(=O)C2CC3(CCN(CC4CCN(c5cnc6c(c5)c(C)cn6C5CCC(=O)NC5=O)CC4)CC3)C2)ccc1Nc1ncc2cc(Cl)c(=O)n(C3CCCC3)c2n1 (stereo not drawn) | 0.1 to 0.5 µM

Now look at this one.
For the compound Cc1cc(S(=O)(=O)C2CCN(CCN3CCN(c4cccc5c4n(C)c(=O)n5C4CCC(=O)NC4=O)CC3)CC2)ccc1Nc1ncc2cc(Cl)c(=O)n(C3CCCC3)c2n1 (stereo not drawn) , what DC50 is on record?
< 0.1 µM

---

DC50 for assorted compounds
TARGET_ENTITY: CDK2 (Homo sapiens)
Construct: endogenous in cells; host or cells: MKN1 cells
RUN_DESCRIPTION: CDK2 degradation in MKN1 cells (AlphaLISA)
Format: cell-based
ASSAY_CONDITIONS: 14 h incubation, read-out: CDK2 degradation 14 h: Mean external-Abs DC50

CC1(O)CCCN(c2nc(Nc3ccc(S(=O)(=O)NC4CCC(CN5CCN(c6ccc(C7CCC(=O)NC7=O)c(F)c6)CC5)CC4)cc3C(F)F)ncc2C(F)(F)F)C1 (centres unmarked) | < 100 nM

Need DC50 of Cc1cc(S(=O)(=O)C2CCN(CCN3CCC(c4cccc5c4n(C)c(=O)n5C4CCC(=O)NC4=O)CC3)CC2)ccc1Nc1ncc2cc(Cl)c(=O)n(C(C)C)c2n1 (centres unmarked) , thanks.
100 to 500 nM

Now try Cc1cc(S(=O)(=O)NC2CCC(CN3CCN(c4ccc(C5CCC(=O)NC5=O)c(Cl)c4)CC3)CC2)ncc1Nc1ncc(C(F)(F)F)c(N2CCCC(C)(O)C2)n1 (centres unmarked) .
< 100 nM

Next: Cc1cc(S(=O)(=O)NCCOC2CCC(CN3CCC(c4ccc5c(c4)n(C)c(=O)n5C4CCC(=O)NC4=O)CC3)CC2)ccc1Nc1ncc(C(F)(F)F)c(C2CCC(C)(O)CC2)n1 (centres unmarked)
< 100 nM

Follow-up entry: COCc1cc(S(=O)(=O)NC2CCC(CN3CCN(c4ccc(C5CCC(=O)NC5=O)c(F)c4)CC3)CC2)ccc1Nc1ncc(C(F)(F)F)c(N2CCCC(C)(O)C2)n1 (centres unmarked)
< 100 nM
